Origin of measurements: patent US20220298138A1

- TESTED ON: Human Factor XIIa (Homo sapiens, UniProt P00748)
- Construct: purchased Enzyme Research Laboratories
- Sequence (P00748 373-615 limits assumed): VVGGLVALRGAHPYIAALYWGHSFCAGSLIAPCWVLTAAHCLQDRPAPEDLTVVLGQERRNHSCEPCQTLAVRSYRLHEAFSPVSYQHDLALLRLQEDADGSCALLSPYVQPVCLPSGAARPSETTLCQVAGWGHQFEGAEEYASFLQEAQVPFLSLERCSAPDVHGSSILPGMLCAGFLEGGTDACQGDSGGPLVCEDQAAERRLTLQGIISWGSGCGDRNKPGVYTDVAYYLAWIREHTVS
- METHOD NOTES: Factor XIIa inhibitory activity in vitro (fluorogenic substrate H-DPro-Phe-Arg-AFC)
- Format: biochemical
- PROTOCOL CONDITIONS: 25° C., class symbols, read-out: Human FXIIa IC50
- Method: Determination of the % Inhibition for FXIIa Human Factor XIIa (Enzyme Research Laboratories) was incubated at 25° C. with the fluorogenic substrate H-DPro-Phe-Arg-AFC and various concentrations of the test compound. Residual enzyme activity (initial rate of reaction) was determined by measuring the change in […] at 410 nm and the IC50 value for the test compound was determined.
Catalogue of IC50 values
RESULT TYPE: IC50

| CHEMICAL STRUCTURE | TEST RESULT |
| --- | --- |
| C[C@@H]1CCC[C@H](C)N1CC(=O)N1CC[C@H]1C(=O)NCc1ccc2c(N)nccc2c1 | 3 to 10 µM |
| CC(C)N[C@H](CCCCN1CCCCC1)C(=O)N[C@@H](Cc1cccc2ccccc12)C(=O)NCc1ccc2c(N)nccc2c1 | < 0.03 µM |
| Cn1ccc(C(=O)N[C@@H](Cc2ccc(F)c(F)c2)C(=O)NCc2ccc3c(N)nccc3c2)n1 | 10 to 40 µM |
| CC(C)N(C)CC(=O)N[C@@H](Cc1ccc(F)c(F)c1)C(=O)NCc1ccc2c(N)nccc2c1 | 0.28 to 1 µM |
| C[C@H](NC(=O)[C@H](N)CCc1ccccc1)C(=O)NCc1ccc2[nH]cc(Cl)c2c1 | 3 to 10 µM |
| CC(C)(C)OC(=O)N[C@H](CCc1ccccc1)C(=O)NC(C)(C)C(=O)NCc1ccc2c(N)nccc2c1 | 10 to 40 µM |
| COc1cc(C(=O)N[C@@H](Cc2ccc(F)c(F)c2)C(=O)NCc2ccc3c(N)nccc3c2)on1 | 3 to 10 µM |
| Nc1nccc2cc(CNC(=O)[C@@H]3CCCN3C(=O)[C@H](N)CCc3ccccc3)ccc12 | 0.28 to 1 µM |
| CC(C)N[C@H](CCCCN1CCOCC1)C(=O)N1CC[C@H]1C(=O)NCc1cnc2[nH]cc(Cl)c2c1 | 0.28 to 1 µM |
| C[C@H](NC(=O)[C@H](N)CCc1ccccc1)C(=O)N[C@@H]1CCc2c1ccnc2N | 0.28 to 1 µM |
| C[C@@H]1CCC[C@H](C)N1CC(=O)N1C[C@H](c2ccccc2)C[C@H]1C(=O)NCc1ccc2c(N)nccc2c1 | 0.28 to 1 µM |
| CC(C)N(CC(=O)N[C@@H](Cc1ccc(F)c(F)c1)C(=O)NCc1ccc2c(N)nccc2c1)C(C)C | 0.28 to 1 µM |
| Nc1nccc2cc(CNC(=O)[C@H](Cc3ccc(F)c(F)c3)NC(=O)CCNC(=O)c3ccc(F)cc3)ccc12 | 10 to 40 µM |
| CC(C)N[C@H](CCCCN1CCCCC1)C(=O)N[C@@H](Cc1ccc(F)c(F)c1)C(=O)NCc1ccc2[nH]cc(Cl)c2c1 | < 0.03 µM |
| Nc1nccc2cc(CNC(=O)[C@H](Cc3ccc(F)c(F)c3)NC(=O)C3(C(F)(F)F)CC3)ccc12 | 10 to 40 µM |
